# Test system: Plasmodium falciparum
# assayRemarks: NOVARTIS: Inhibition of Plasmodium falciparum 3D7 (drug-susceptible) proliferation in erythrocyte-based infection assay
# Format: functional, organism-based
# studyConditions: Plasmodium falciparum, 3D7
readout: pEC50
Give only the number. pEC50 is defined as minus log10 of concentration in molar units.

Take a look at these entries with their results.
Quick one: pEC50 of COc1cc(NC(C)CCCN(Cc2ccccc2OC)C(=O)COCc2ccccc2)c2ncccc2c1 (stereo unspecified) ?
5.95

Endpoint output: pEC50 of Cc1nc2c(c(C)nn2C)c(C)c1CCC(=O)N1CCCC1 . Value?
6.44

Can you look up the measured pEC50 of CC(C)CCN1C(=O)N(CCN(C)C)C(=O)C12CCN(Cc1ccc(O)cc1)CC2 for me?
6.13

Which pEC50 value belongs to CCOc1ccc(CCN2C(=S)N(c3cccc(C(F)(F)F)c3)C(=O)C2CC(=O)Nc2ccc(C(=O)OC)cc2)cc1OCC (stereo unspecified) ?
5.76

Need pEC50 of Cc1cc(Cl)ccc1OC(C)C(=O)N1CCc2ccccc21 (stereo unspecified) , thanks.
6.20

***
State the recorded pEC50 for this entry: Cc1ccccc1Cn1c(N2CCC(C(=O)NCc3ccccn3)CC2)nc2ccccc21
5.71

Consider the compound shown here: Cc1nc2c(C)c(-c3ccccc3)nn2c(O)c1C What is its recorded pEC50?
5.99

I have this compound here, C=CC1CN2CCC1CC2C(O)c1ccnc2ccccc12 (stereo unspecified) , and I need its recorded pEC50.
7.36
